Please provide measured growth for the entries that follow.
- Test system: MOLT-4 leukemia
- assay-remarks: NCI-60 one-dose screen, 48 h (100 = growth as untreated, 0 = no growth, -100 = all killed)
- condition-description: 10 µM unless noted
This is part of a sample that, as a whole, favours compounds with a hit. Of some 83,000 tested, about 20% had one in any assay.
Answers are plain numbers, in %.

Some entries whose results are on file:
COc1cc(C2=NN(C(C)=O)C(c3cc(OC)c(OC)c(OC)c3)C2)ccc1O (centres undefined) ... 0.196
COc1cc(OC)cc(C(=O)C[n+]2cccc3cc[nH]c32)c1 ... 105
CC(=O)O[C@@H]1C2CCC3C(CC[C@@]4(C)C3CC[C@@H]4C(C)N(C)C)[C@@]2(C)CC[C@@H]1NC(=O)C=C(C)C (some centres undefined) ... -50.6

Below are some molecules; for each one, tell me its growth.
1. C=C1C(=O)O[C@H]2[C@H]1CC/C(CNC(=O)/C=C/c1cccc(OC)c1)=C\CC[C@@]1(C)O[C@@H]21
2. CN1C(=O)NC(c2ccc3c(c2)OCO3)C=C1c1ccccc1 (centres undefined)
3. COc1ccc(C(=O)C2C(C#N)C(C#N)C3c4ccccc4C=CN23)cc1 (centres undefined)

(A)
1. -3.23
2. 94.3
3. 95.6

* * *

- System: HOP-92 NSCLC
- assay-remarks: NCI-60 one-dose screen, 48 h
- condition-description: 10 µM unless noted
Compounds without any hit were thinned out: in the full panel of roughly 83,000, 20% have a hit. Activity calls are given as the source filed them. How the source made its calls: active means growth percent below 10; inactive means the rest.
// one of active, inactive, no free text

CCCOc1ccc(/C=N/Nc2cc(C)nc3ccc(Cl)cc23)cc1 ... inactive
CN(C)CCC(=O)c1ccc([N+](=O)[O-])cc1 ... inactive
O=C1Nc2cc(-c3ccc(NC(=O)c4ccccc4)cc3)ccc2/C1=C/c1ccc[nH]1 ... inactive
COc1cc2nc(-c3ccc(C(F)(F)F)cc3)cc(OCCN3CCCCC3)c2cc1OC ... inactive
CCCOC(=O)N[C@H]1CCc2c(Cl)c(OC)c(OC)c(OC)c2-c2ccc(SC)c(=O)cc21 ... active
Cc1ccc(NC(C(=O)c2ccccc2)c2ccccc2)cc1 (stereo not drawn) ... inactive

As a next step, examine the compound that follows.
(Q) Hey, what did the test say about NC(=O)Nc1ccc(-n2cnc3cc(-c4ccc(O)cc4)ccc32)cc1 ?
(A) inactive

* * *

- Test system: HOP-92 NSCLC
- assay-remarks: NCI-60 one-dose screen, 48 h (100 = growth as untreated, 0 = no growth, -100 = all killed)
- condition-description: 10 µM unless noted
About 83,000 compounds went through this panel and 20% of them were active in at least one assay; those are over-represented in the sample as a whole.
Please provide measured growth for the entries that follow.
Give bare numbers, in %.

Some entries whose results are on file:
COc1ccc(C(=O)Cn2c(C(=O)c3ccccc3)nc3ccccc32)cc1 ... 54.7
O=C(Nc1ncc(Cc2cc(Cl)ccc2Cl)s1)c1cccs1 ... 48.4
COc1cc(/C=C/C(=O)c2nc3cc(F)ccc3nc2C)cc(OC)c1OC ... 48.9
CCCCOc1ccc(/C(C)=N/Nc2cc(C)nc3ccc(Br)cc23)cc1 ... 78.4
Oc1ccc(OCCOc2ccc(O)cc2)cc1 ... 94.2

Below are some compounds; for each one, tell me its growth.
1. O=S(=O)(NCCNc1nccc(-c2c(-c3cccc(O)c3)nc3occn23)n1)c1ccc(C(F)(F)F)cc1
2. COc1cccc(-c2ccc3c(c2)NC(=O)/C3=C\c2ccc[nH]2)c1
3. NS(=O)(=O)c1ccc(Cn2c(SCC(=O)N/N=C/c3ccccc3O)nc3ccccc3c2=O)cc1

(A)
1: 92.6; 2: 93.5; 3: 54

Below are some compounds; for each one, tell me its growth.
1. N#C/C(=C\c1ccc(C(F)(F)F)cc1)c1cc2ccccc2[nH]1
2. Cc1c(C)c([N+](=O)[O-])c(C)c([N+](=O)[O-])c1C

(A)
1: 119; 2: 79.2

* * *

- System: SF-539 CNS
- assay-remarks: NCI-60 one-dose screen, 48 h (100 = growth as untreated, 0 = no growth, -100 = all killed)
- condition-description: 10 µM unless noted
The panel holds about 83,000 compounds, 20% with a hit somewhere; the sample as a whole holds those more often.
So basically, if growth comes in under -30% it's True, and if it's -30% or more it's False.

CN1CCN(c2ccc(NC3=C(Cl)C(=O)c4ncccc4C3=O)cc2C(F)(F)F)CC1 ... False
Cc1ccc(-c2[nH][nH]c(=O)c2-c2nc3ccccc3s2)cc1 ... False
CC(C)(C)[Si](C)(C)OC1[C@@H](O[Si](C)(C)C(C)(C)C)[C@@H](CNC(=O)NC(=O)CCl)O[C@H]1n1cnc2c(NC(=O)Nc3ccccc3)ncnc21 (stereo partly drawn) ... True
O=C(/C(=C/c1ccc([N+](=O)[O-])cc1)SCc1ccc(F)cc1)c1ccc(F)cc1 ... False

(Q) Identify whether the compound CC1(C)NCCC[C@]2(C)[C@H]3CC(=O)[C@H]4[C@@H]5C[C@](C)(CO)CC[C@]5(C)CC[C@@]4(C)[C@]3(C)CC[C@@H]12 records growth below -30%.
(A) False

(Q) Identify whether the compound CCOC(=O)c1cc(C(=O)c2ccc(OC)c(OC)c2)n2ccc(/C=C/c3cc[n+](CC(=O)c4ccc(OC)c(OC)c4)cc3)cc12 records growth below -30%.
(A) False

(Q) Identify whether the compound C[C@H]1[C@H](C)CC[C@]2(C(=O)Nc3ccc4ncccc4c3)CC[C@]3(C)C(=CC[C@@H]4[C@@]5(C)CCCNC(C)(C)[C@@H]5CC[C@]43C)[C@H]12 records growth below -30%.
(A) True

* * *

- Test system: OVCAR-8 ovarian
- assay-remarks: NCI-60 one-dose screen, 48 h (100 = growth as untreated, 0 = no growth, -100 = all killed)
- condition-description: 10 µM unless noted
The panel holds about 83,000 compounds, 20% with a hit somewhere; the sample as a whole holds those more often.
So basically: growth at 60% or higher? That is MET. Lower than 60%? That is NOT MET.

Below, 6 compounds whose answers are already recorded.
O=S(=O)(NCCNc1nccc(-c2c(-c3cccc(F)c3)nc3sccn23)n1)c1ccc(Cl)cc1 ... NOT MET
NC(=O)Nc1ccc(-n2cnc3cc(-c4ccc(O)cc4)ccc32)cc1 ... MET
CN1C(N2CCN(S(=O)(=O)c3ccccc3)CC2)=NS(=O)(=O)c2ccccc21 ... MET
CN1CCN(CCNc2nccc(-c3c(-c4cccc(O)c4)nc4sccn34)n2)S1(=O)=O ... MET
CC(=O)OC[C@]12CC[C@@H](C(=O)CBr)[C@@H]1[C@H]1CC[C@@H]3[C@@]4(C)CC[C@H](OC(C)=O)C(C)(C)[C@@H]4CC[C@@]3(C)[C@]1(C)CC2 ... MET
CN1CCN(C(=O)[C@]23CCC(C)(C)C[C@H]2C2=CC[C@@H]4[C@@]5(C)C/C(=C/c6ccncc6)C(=O)C(C)(C)[C@@H]5CC[C@@]4(C)[C@]2(C)CC3)CC1 ... NOT MET

(Q) Confirm if growth reported for the compound Cc1cc2cc3ccc(N(C)C)cc3nc2cc1N is 60% or above.
(A) NOT MET

(Q) Confirm if growth reported for the compound CCN(CC)c1ccc(C(=O)c2ccccc2)cc1 is 60% or above.
(A) MET

* * *

- Tested on: A549/ATCC NSCLC
- assay-remarks: NCI-60 one-dose screen, 48 h (100 = growth as untreated, 0 = no growth, -100 = all killed)
- condition-description: 10 µM unless noted
The panel holds about 83,000 compounds, 20% with a hit somewhere; the sample as a whole holds those more often.
measurement-type: growth (%)
Numbers only, in %.

Some entries whose results are on file:
O=C(/C=C(/C=C/c1csc2ccccc12)OB(F)F)/C=C/c1csc2ccccc12 ... 70.1
COc1ccc(Cc2cnc(NC(=O)c3ccc4c(c3)OCCO4)s2)cc1 ... 16.1
O=S(=O)(NCCNc1nccc(-c2c(-c3cccc(F)c3)nc3sccn23)n1)c1ccccc1 ... 25.2

Below are some molecules; for each one, tell me its growth.
1. Cc1nn(-c2ccccc2)c(Cl)c1/C=C/C(=O)c1ccc(F)cc1
2. N#CC1=C(/N=C/c2ccccc2)Oc2c(ccc3ccccc23)C1c1ccc([N+](=O)[O-])cc1 (stereo not given)

(A)
1: 83.8; 2: 101

* * *

- Test system: NCI-H23 lung
- assay-remarks: NCI-60 one-dose screen, 48 h
- condition-description: 10 µM unless noted
This is part of a sample that, as a whole, favours compounds with a hit. Of some 83,000 tested, about 20% had one in any assay. The source made the active and inactive calls. The calls were made as follows: active = growth percent below 10; inactive = the rest.
// one of label 1 for active, label 0 for inactive, no free text

Below, 3 compounds whose answers are already recorded.
CCc1c2c(nc3ccc(OCc4ccc(B(O)O)cc4)cc13)-c1cc3c(c(=O)n1C2)COC(=O)[C@]3(O)CC ... label 1
CC1(C)CC[C@]2(C(=O)O)CC[C@]3(C)C(=CC[C@@H]4[C@@]5(C)Cc6c([nH]c7ccccc67)C(C)(C)[C@@H]5CC[C@]43C)[C@@H]2C1 ... label 0
NC(=O)Nc1ccc(-n2cnc3cc(-c4ccc(O)cc4)ccc32)cc1 ... label 0

As a next step, examine the compound that follows.
(Q) Hey, what did the test say about C/C(=N\NC(=O)CSc1nc2ccccc2c(=O)n1CCc1ccc(S(N)(=O)=O)cc1)c1ccccn1 ?
(A) label 0

Taken from PubChem BioAssay (NCI).
